test system: RPMI-8226 leukemia; experiment: NCI tumour cell line growth inhibition, 48 h
parameter measured: TGI

Example cases with answers are listed next.
COc1ccc(/C=C2\CNC/C(=C\c3ccc(OC)cc3)C2=O)cc1 = > 100 µM
CC1CSc2nc3[nH]c(=S)[nH]c3c(=O)n2C1 (stereo unspecified) = > 100 µM
O=C1NC(N/N=C/C(O)C(O)C(O)C(O)CO)=N/C1=C\c1cccs1 (stereo unspecified) = > 100 µM
CC1OC(OC2C(Oc3cc(O)c4c(=O)cc(-c5ccc(O)cc5)oc4c3)OC(CO)C(O)C2O)C(O)C(O)C1O (stereo unspecified) = > 100 µM
CCOP(=O)(OCC)C(Cc1ccccc1)N=C(c1ccccc1)c1ccccc1 (stereo unspecified) = > 100 µM
N#CC(C#N)=CN1CCN(C(=O)c2ccccc2)C1=S = > 100 µM

Look up and state reported TGI for CC1=NN(C(=O)CC(=O)Nc2cccc(Cl)c2)C(=O)C1N=Nc1ccc(S(=O)(=O)c2ccc(N=NC3C(=O)N(C(=O)CC(=O)Nc4cccc(Cl)c4)N=C3C)cc2)cc1 (stereo unspecified)
> 100 µM

Look up and state reported TGI for `OCCCN(CCc1ccc(Cl)c(Cl)c1)CCN1CCCC1`
70.6 µM

Look up and state reported TGI for `NNC(=O)CCCCCCCC(=O)O`
> 100 µM

Look up and state reported TGI for `CCCCC(=O)[O-].N.N.N.N.N.[Co+3].[O-][Cl+3]([O-])([O-])[O-]`
> 100 µM

Look up and state reported TGI for `CCOC(=O)CC[C@@H](NC(=O)c1ccc(NCc2ccc3nc(OC)c(OC)nc3c2)cc1)C(=O)OCC`
> 100 µM

Look up and state reported TGI for `O=[N+]([O-])/C(C(Cl)=C(Cl)Cl)=C(/Sc1ccccc1)N1CCOCC1`
5.73 µM

Look up and state reported TGI for CC1(C)OC2CN(C(=O)OCc3ccccc3)C(CO)C2O1 (stereo unspecified)
> 100 µM

* * *

test system: UACC-62 melanoma; assay: NCI tumour cell line growth inhibition, 48 h; in the data active means GI50 below about 0.43 µM; inactive means the rest
Respond using exactly one of the listed classes: true (1) = active, false (0) = inactive

CCC(C)/C=C(C)/C=C/C(=O)c1c(O)c(-c2ccc(O)cc2)c[nH]c1=O (centres undefined) = false (0)
c1cncc(CNc2ccccc2-c2nnc(Nc3ccc4c(c3)OCCO4)o2)c1 = true (1)

What did the test return for `O=C(N/N=C/c1ccc(O)cc1O)c1ccc(Nc2ccnc(C(F)(F)F)c2)cc1` ?
true (1)

What did the test return for `COc1cc(-c2cn(-c3ccc(Cl)cc3)c(=O)[nH]2)cc(OC)c1OC` ?
false (0)

What did the test return for `O=C(c1cc(-c2cc3c(cc2C(=O)N2Cc4ccccc4C[C@H]2CN2CCOCC2)OCO3)n2c1CCCC2)N(c1ccccc1)c1ccc(O)cc1` ?
false (0)

* * *

tested on: OVCAR-3 ovarian; assay: NCI tumour cell line growth inhibition, 48 h; in the data active = GI50 below about 0.43 µM; inactive = the rest
Respond using exactly one of the listed classes: T (active), F (inactive)

Answered examples (3):
Cc1c(Cl)cccc1NC(=O)c1sc2nc3c(cc2c1N)CCCCCC3 = T
CCOc1cc2ncc(C#N)c(Nc3ccc(F)c(Cl)c3)c2cc1NC(=O)/C=C/CN(C)C = T
CCOC(=O)[C@@H](C)C[C@H](Cc1ccccc1)NC(=O)c1csc([C@@H](C[C@H](C(C)C)N(C)C(=O)[C@H](CCC(C)C)NC(=O)[C@H]2CCCCN2C)OC(C)=O)n1 = T

Then there is this compound:
What did the test return for `COc1cc(-c2cn(-c3ccc(Cl)cc3)c(=O)[nH]2)cc(OC)c1OC` ?
F

* * *

system: OVCAR-5 ovarian; test: NCI tumour cell line growth inhibition, 48 h
Each entry below carries its reported TGI.
Response body: numeric value in µM, unit text excluded.

CC1(C)N=C(N)N=C(N)N1c1ccc(CCCCc2ccc(Cl)cc2Cl)cc1 = 20.9
CC(=O)Oc1cccc2c1C(=O)C(Br)(Br)CCC2 = 21.9
COc1cc(/C=C2\CCc3cc(OC)c(OC)cc3C2=O)cc(OC)c1 = 99.3
O=C1C(Cl)=C(N2CCOCC2)C(=O)c2ccccc21 = 36.4
COc1cccc2c1C(=O)c1ccc3cc(CO)cc(O)c3c1C2=O = 3.92
Cc1cc(N/N=C/c2nc(-c3ccccc3)oc2C)c2cc(Cl)ccc2n1 = 3.12
COC1CC(OS(=O)(=O)c2ccc(C)cc2)C(OS(=O)(=O)c2ccc(C)cc2)C(COS(=O)(=O)c2ccc(C)cc2)O1 (configuration not stated) = 51.5

Look up and state reported TGI for CCOC(=O)C1(Cc2ccccc2)CCN(C(=O)c2ccccc2)C2C1C2(Cl)Cl (configuration not stated)
98.4

* * *

test system: HOP-62 NSCLC; assay: NCI tumour cell line growth inhibition, 48 h
Each entry below carries its reported TGI.
Response body: numeric value in µM, unit text excluded.

Example cases with answers are listed next.
O=C(O)c1cc2c(cc1S(=O)(=O)O)C1C(C3C2C2(Cl)C(Cl)=C(Cl)C3(Cl)C2(Cl)Cl)C2(Cl)C(Cl)=C(Cl)C1(Cl)C2(Cl)Cl (stereo not given) = 89.1
O=C(c1ccco1)N1CCN(C(=O)c2ccco2)C1=S = 33.1
COc1ccc(C(=O)/C=C/c2cc(C(=O)c3cc(OC)c(OC)c(OC)c3)ccc2OC)cc1 = 94.5

Attention now turns to another entry.
Look up and state reported TGI for CCOC(=O)C1(Cc2ccccc2)CCN(C(=O)c2ccccc2)C2C1C2(Cl)Cl (stereo not given)
87.2

* * *

test system: SK-MEL-28 melanoma; test: NCI tumour cell line growth inhibition, 48 h
parameter measured: TGI

CN(C)CCCNC(=O)CNC(=O)c1cc(NC(=O)c2cc(NC(=O)c3cc(NC(=O)CCNC(=O)c4cc(NC(=O)c5cc(NC(=O)c6nccn6C)cn5C)cn4C)cn3C)cn2C)cn1C = > 100 µM

Provide the reported TGI (system: SK-MEL-28 melanoma) for `CCOC(=O)c1ccc(Nc2nc3ccc(C(F)(F)F)cc3nc2-c2ccccc2)cc1`
> 100 µM

Provide the reported TGI (system: SK-MEL-28 melanoma) for `C=C(CN1CCN(c2ccccc2F)CC1)c1ccc(C(=O)Nc2ccccc2N)cc1`
53.9 µM

Provide the reported TGI (system: SK-MEL-28 melanoma) for `N#Cc1nsnc1-c1nc(-c2nsnc2C#N)nc(-c2nsnc2C#N)n1`
> 100 µM

Provide the reported TGI (system: SK-MEL-28 melanoma) for `Cn1c2ccc([N+](=O)[O-])cc2c(=O)c2c(O)cc(O)cc21`
> 100 µM

Provide the reported TGI (system: SK-MEL-28 melanoma) for C=CC1(CBr)CCC(C(C)(C)Br)O1 (stereo unspecified)
23.9 µM

Provide the reported TGI (system: SK-MEL-28 melanoma) for `CN(C)CCCn1c2c3ccccc3ccc2c2oc(=O)c3ccccc3c21`
12.3 µM

Provide the reported TGI (system: SK-MEL-28 melanoma) for `COc1cc(/C=C2\CCc3cc(OC)c(OC)cc3C2=O)cc(OC)c1`
> 100 µM

* * *

Each entry below carries its reported TGI.
system: HS 578T breast; assay: NCI tumour cell line growth inhibition, 48 h

Example cases with answers are listed next.
COc1ccccc1/C=C1/Sc2scc(CC(=O)Nc3ccccc3)[n+]2C1=O = > 100 µM
CN(C)CC#Cc1cccc(C(=O)c2cnn(-c3ccc(F)cc3)c2N)c1 = > 25 µM
O=C(Nc1ccc2oc(=O)c(C(=O)O)cc2c1)Oc1ccccc1 = > 100 µM
CCOC(=O)c1cc2cc(CSc3ccccc3)ccc2oc1=O = > 100 µM
O=C(N/N=C/c1ccc(O)cc1O)c1ccc(Nc2ccnc(C(F)(F)F)c2)cc1 = 29 µM

Look up and state reported TGI for C=CCOc1ccc(C2c3c([nH][nH]c3=O)CC(C)(O)C2C(=O)OC)cc1OC (stereo not drawn)
> 100 µM

Look up and state reported TGI for `COc1cc2cnc3c(c2cc1OC)Cc1cc2c(cc1-3)OCO2`
> 100 µM

Look up and state reported TGI for `CNC=O`
> 10000 µM

Look up and state reported TGI for `Cc1[nH]n(-c2nc(O)c(C)c(=O)[nH]2)c(=O)c1CCO`
> 100 µM

* * *

test system: SK-MEL-2 melanoma; assay: NCI tumour cell line growth inhibition, 48 h; in the data active = GI50 below about 0.43 µM; inactive = the rest
*1 amine or outer side, *2 acyl side, *3 side chain or, on linkers, in order; H or OH if unused. Where a SMILES comes first, the peptide text is derived from it. Bridges are numbered along the chain shown (N, C = ends). [ ]: non-standard residue; d: D form. The star is where a group is joined. Phe(3-Me) = Cc1cccc(C[C@H](N)C(=O)O)c1; NH(4-Cl-2-F-phenyl) = Fc1cc(Cl)ccc1N*; Pro(4R-Me) = C[C@H]1CN[C@H](C(=O)O)C1; Hyp = O=C(O)[C@@H]1C[C@@H](O)CN1; aThr = C[C@H](O)[C@H](N)C(=O)O; Pip = O=C(O)[C@@H]1CCCCN1; CO = O=C([*:1])[*:2]
Respond using exactly one of the listed classes: active, inactive

Answered examples (6):
O=C(CNC(=O)c1cccc2ccccc12)Nc1ccccc1Oc1ccccc1 = active
CC[O-].CC[O-].O=Nc1ccc2cc([O-])ccc2c1.O=Nc1ccc2cc([O-])ccc2c1.[Ti+4] = inactive
c1cncc(CNc2ccccc2-c2nnc(Nc3ccc4c(c3)OCCO4)o2)c1 = active
Cc1cccc(C[C@H](NC(=O)Nc2ccc(Cl)cc2F)C(=O)N[C@@H]2C(=O)N3C[C@H](O)C[C@H]3C(=O)N3CCCC[C@H]3C(=O)N[C@@H](C)C(=O)N3C[C@H](C)C[C@H]3C(=O)O[C@H]2C)c1 ({NH(4-Cl-2-F-phenyl)-CO}-[Phe(3-Me)][aThr][Hyp][Pip]A[Pro(4R-Me)]; ester 2-C) = inactive
Cl.Fc1c[c-]c(-c2ccccn2)c(F)c1.[Pt].c1ccc([PH+](CC[PH+](c2ccccc2)c2ccccc2)c2ccccc2)cc1 = active
O=[N+]([O-])c1cc(Br)cc2c1[nH]c1ccc(Br)cc12 = inactive

What did the test return for `C[C@@H]1CCN(C(=O)CC#N)C[C@@H]1N(C)c1ncnc2[nH]ccc12` ?
inactive

What did the test return for `CN1CCN(Cc2ccc(NC(=O)c3[nH]ncc3Nc3ncnc4c3CCC4)cc2)CC1` ?
inactive

What did the test return for `c1ccc2[nH]c(-c3ccc(OCCCCCOc4ccc(-c5nc6ccccc6[nH]5)cc4)cc3)nc2c1` ?
inactive

What did the test return for `CCc1nc2ccc(Cc3ccc(C(=O)NO)cc3)cc2c(=O)n1CCc1ccccc1` ?
inactive

What did the test return for N#CSCC1CC(O)(c2ccccc2)C(c2ccccc2)C(c2ccc(F)cc2)O1 (stereo not given) ?
inactive

What did the test return for `O=C(Nc1ccc(Nc2ccncc2)cc1)c1ccc(Nc2ccnc3ccc([N+](=O)[O-])cc23)cc1` ?
inactive
